Tested on: KRAS PDC multicell spheroid viability
Test: Anticancer human tumor 521955-158-R6-J3-PDC patient-derived pancreatic carcinoma cell line growth inhibition [KRAS2]
Settings: second compound 3.16 µM; first compound 0.316 µM; active compounds read low
measure name: viability, T/C (%)
Answers are plain numbers, in %.

Record excerpt, results attached:
{"compound": "O=C(c1cc(Cc2n[nH]c(=O)c3ccccc23)ccc1F)N1CCN(C(=O)C2CC2)CC1 + C=CC(=O)N1CCN(c2nc(OCC3CCCN3C)nc3c2CCN(c2cccc4cccc(C)c24)C3)CC1CC#N", "system under test": "KRAS PDC multicell spheroid viability", "measurement units": "%", "observed value": 24.1}
{"compound": "CC1OCC2(CCN(c3cnc(Sc4ccnc(N)c4Cl)c(N)n3)CC2)C1N (stereo not drawn) + COc1cc2nc(C)nc(NC(C)c3cc(N)cc(C(F)(F)F)c3)c2cc1OC1CCOC1", "system under test": "KRAS PDC multicell spheroid viability", "measurement units": "%", "observed value": 77.2}

Alright, here's another compound for you.
Reported viability, T/C for CCN1CCN(Cc2ccc(Nc3ncc(F)c(-c4cc(F)c5nc(C)n(C(C)C)c5c4)n3)nc2)CC1 + COc1cc2nc(C)nc(NC(C)c3cc(N)cc(C(F)(F)F)c3)c2cc1OC1CCOC1 : what is it? 69.8

----------
Test system: KRAS PDC multicell spheroid viability
Experiment: Anticancer human tumor 521955-158-R6-J3-PDC cell line growth inhibition [KRAS2];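 also: drug exposure lasted seven days; 100% = DMSO vehicle wells and lower means fewer viable cells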
Details: second compound 0.0316 µM; first compound 0.316 µM; active compounds read low
Exercise: state measured viability, T/C for each of the molecules provided.
Give bare numbers, in %.

{"molecule": "O=C(c1cc(Cc2n[nH]c(=O)c3ccccc23)ccc1F)N1CCN(C(=O)C2CC2)CC1 + C=CC(=O)N1CCN(c2nc(OCC3CCCN3C)nc3c2CCN(c2cccc4cccc(C)c24)C3)CC1CC#N", "viability, T/C (%)": 96.7}

Please tell me: viability, T/C of CC(=O)OC12COC1CC(O)C1(C)C(=O)C(O)C3=C(C)C(OC(=O)C(O)C(NC(=O)OC(C)(C)C)c4ccccc4)CC(O)(C(OC(=O)c4ccccc4)C21)C3(C)C (configuration not stated) + C=CC(=O)N1CCN(c2nc(OCC3CCCN3C)nc3c2CCN(c2cccc4cccc(C)c24)C3)CC1CC#N , system KRAS PDC multicell spheroid viability? 80.5

----------
System: KRAS PDC multicell spheroid viability
Assay: Anticancer human tumor 521955-158-R6-J3-PDC cell line growth inhibition [KRAS2];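 also: drug exposure lasted seven days; 100% = DMSO vehicle wells and lower means fewer viable cells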
Conditions: second compound 3.16 µM; first compound 0.0316 µM; active compounds read low
measure name: viability, T/C (%)
Numbers only, in %.

Record excerpt, results attached:
{"molecule": "CC(C)n1nc(-c2ccc3oc(N)nc3c2)c2c(N)ncnc21 + COc1cc2nc(C)nc(NC(C)c3cc(N)cc(C(F)(F)F)c3)c2cc1OC1CCOC1", "viability, T/C (%)": 61.6}
{"molecule": "COc1cc(Nc2ncc3c(n2)-c2ccc(Cl)cc2C(c2c(F)cccc2OC)=NC3)ccc1C(=O)O + CNCc1ccccc1-c1csc(C(C)Nc2nc(C)nc3cc(OC)c(OC)cc23)c1", "viability, T/C (%)": 1.45}
{"molecule": "CC1(C)CCC(CN2CCN(c3ccc(C(=O)NS(=O)(=O)c4ccc(NCC5CCOCC5)c([N+](=O)[O-])c4)c(Oc4cnc5[nH]ccc5c4)c3)CC2)=C(c2ccc(Cl)cc2)C1 + C=CC(=O)N1CCN(c2nc(OCC3CCCN3C)nc3c2CCN(c2cccc4cccc(C)c24)C3)CC1CC#N", "viability, T/C (%)": 45.2}

Give measured viability, T/C for every item shown.
1. CC1OCC2(CCN(c3cnc(Sc4ccnc(N)c4Cl)c(N)n3)CC2)C1N (stereo not given) + C=CC(=O)N1CCN(c2nc(OCC3CCCN3C)nc3c2CCN(c2cccc4cccc(C)c24)C3)CC1CC#N
2. Cn1ncnc1[C@H]1c2n[nH]c(=O)c3cc(F)cc(c23)N[C@@H]1c1ccc(F)cc1 + C=CC(=O)N1CCN(c2nc(OCC3CCCN3C)nc3c2CCN(c2cccc4cccc(C)c24)C3)CC1CC#N

1: 40.8; 2: 52.6

Give measured viability, T/C for every item shown.
1. CC(=O)Nc1cccc(-n2c(=O)n(C3CC3)c(=O)c3c(Nc4ccc(I)cc4F)n(C)c(=O)c(C)c32)c1 + CC1OCC2(CCN(c3cnc(Sc4ccnc(N)c4Cl)c(N)n3)CC2)C1N
2. CCN1CCN(Cc2ccc(Nc3ncc(F)c(-c4cc(F)c5nc(C)n(C(C)C)c5c4)n3)nc2)CC1 + C=CC(=O)N1CCN(c2nc(=O)n(-c3c(C)ccnc3C(C)C)c3nc(-c4c(O)cccc4F)c(F)cc23)C(C)C1

1: 28.6; 2: 101

Give measured viability, T/C for every item shown.
1. CCN1CCN(Cc2ccc(Nc3ncc(F)c(-c4cc(F)c5nc(C)n(C(C)C)c5c4)n3)nc2)CC1 + CNCc1ccccc1-c1csc(C(C)Nc2nc(C)nc3cc(OC)c(OC)cc23)c1
2. CCNC(=O)CC1N=C(c2ccc(Cl)cc2)c2cc(OC)ccc2-n2c(C)nnc21 (stereo not given) + COc1cc2nc(C)nc(NC(C)c3cc(N)cc(C(F)(F)F)c3)c2cc1OC1CCOC1

0.51
70.8

Reported viability, T/C for CC1(C)CCC(CN2CCN(c3ccc(C(=O)NS(=O)(=O)c4ccc(NCC5CCOCC5)c([N+](=O)[O-])c4)c(Oc4cnc5[nH]ccc5c4)c3)CC2)=C(c2ccc(Cl)cc2)C1 + C=CC(=O)N1CCN(c2nc(=O)n(-c3c(C)ccnc3C(C)C)c3nc(-c4c(O)cccc4F)c(F)cc23)C(C)C1 : what is it? 91.9

Data origin: PubChem BioAssay AID1963864
